Target: DYRK1A (Rattus norvegicus)
Test: DYRK1A ELISA kinase assay
Assay type: biochemical
MEASURE: IC50

Entry Oc1cc(O)c2c(c1)O[C@H](c1cc(O)c(O)c(O)c1)[C@H](O)C2 [EGC, EpiGalloCatechin, reference compound] has what IC50?
> 100 µM
